FYI, the data here is from patent US12509430B2.

- ASSAY INFO: Microsomal stability, mouse microsomes with NADPH and UDPGA (Phase II)
- Assay type: in vitro ADME
- CONDITION INFO: mouse liver microsomes, NADPH & UDPGA
QUANTITY KIND: microsomal CLint at 2 μM

microsomal CLint at 2 μM in this record for CNc1cc(C)c(C(N)=O)cn1 [Compound 4, 4-methyl-6-(methylamino) nicotinamide] : < 5.42 µL/min/mg

---

- ASSAY INFO: Microsomal stability, mouse microsomes with NADPH and UDPGA (Phase II)
- Format: in vitro ADME
- CONDITION INFO: mouse liver microsomes, NADPH & UDPGA; read-out: Predicted hepatic Clint
- Procedure: The metabolism of Compounds 4 and 13 was evaluated using a microsomal stability assay. Briefly, a master solution was prepared according to Tables 5 and 6. For the assay with NADPH and UDPGA (Phase II), 40 μL of 10 mM NADPH solution and 40 μL of 20 mM UDPGA solution were added to each well. The final concentrations of NADPH and UDPGA were 1 mM and 2 mM. […] The negative control samples were prepared by replacing cofactors (NADPH and UDPGA) solution with 80 μL of ultra-pure H2O. […]
QUANTITY KIND: CLhep predicted at 2 μM

CLhep predicted at 2 μM in this record for CNc1cc(C)c(C(N)=O)cn1 [Compound 4, 4-methyl-6-(methylamino) nicotinamide] : < 1.13 L/h/kg

---

- ASSAY INFO: In vivo pharmacokinetics, plasma concentration of inhibitor in female C57B16/N mice
- CONDITION INFO: female, C57B16/N, mouse, plasma, po, 50 mg/kg
QUANTITY KIND: Tmax

Tmax in this record for CNc1ccc(C(N)=O)cn1 [JBSNF-000265, reference compound] : 20 min

---

- ASSAY INFO: Microsomal stability, human microsomes with NADPH (Phase I)
- Type: in vitro ADME
- CONDITION INFO: human liver microsomes
microsomal CLint at 2 μM: recorded values

* CNc1cc(Cl)c(C(N)=O)cn1 | < 5.42 µL/min/mg
* CNc1cc(C)c(C(N)=O)cn1 [Compound 4, 4-methyl-6-(methylamino) nicotinamide] | < 5.42 µL/min/mg

microsomal CLint at 2 μM in this record for CNc1ccc(C(N)=O)cn1 [JBSNF-000265, reference compound] : ~6.84 µL/min/mg

---

AUC(0-inf): recorded values
- ASSAY INFO: In vivo pharmacokinetics, plasma concentration of inhibitor in female C57B16/N mice
- CONDITION INFO: female, C57B16/N, mouse, plasma, po, 50 mg/kg
Give the value in ng·h/mL but do not write ng·h/mL after it.

* CNc1cc(C)c(C(N)=O)cn1 [Compound 4, 4-methyl-6-(methylamino) nicotinamide] | 30800

Kindly review the next compound as well.
AUC(0-inf) in this record for CNc1ccc(C(N)=O)cn1 [JBSNF-000265, reference compound] : 15500

---

- ASSAY INFO: In vivo pharmacokinetics, plasma concentration of inhibitor in female C57B16/N mice
- CONDITION INFO: female, C57B16/N, mouse, plasma, po, 50 mg/kg
QUANTITY KIND: MRT inf (min)
Give the value in min but do not write min after it.

• CNc1ccc(C(N)=O)cn1 [JBSNF-000265, reference compound] = 34.2

MRT inf in this record for CNc1cc(C)c(C(N)=O)cn1 [Compound 4, 4-methyl-6-(methylamino) nicotinamide] : 41.7
